# SYSTEM NAME: T1, human CD19 (human, UniProt P15391 20-291, biotinylated in the Biacore assay of Table 11)
# T1 construct: also called isolated CD19; Human CD19 Protein
# T1 sequence (looked up): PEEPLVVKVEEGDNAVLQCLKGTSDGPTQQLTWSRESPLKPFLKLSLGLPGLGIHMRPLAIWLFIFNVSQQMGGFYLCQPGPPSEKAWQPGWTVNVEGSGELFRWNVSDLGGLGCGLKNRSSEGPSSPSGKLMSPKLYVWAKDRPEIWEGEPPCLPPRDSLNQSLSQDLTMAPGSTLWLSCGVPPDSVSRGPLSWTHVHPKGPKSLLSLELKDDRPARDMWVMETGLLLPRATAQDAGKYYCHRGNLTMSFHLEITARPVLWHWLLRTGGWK
# MEASUREMENT PROTOCOL: Octet HTX (ForteBio), IgG on AHC sensor, 1:1 fit
# koff per record follows
Lab note: write values as number then unit, every time.

Examples with answers:
BINDER: CNG-CD19-109 (antibody, V domains shown, tested as IgG produced in yeast) VH: QVQLVQSGAEVKKPGASVKVSCKASGYDFTDYIVHWVRQAPGQGLEWMGYINPYNDGSLYTEKFQGRVTMTSDTSISTAYMELSRLRSDDTAVYYCARGTYYYGPQLFDYWGQGTTVTVSS VL: DIVMTQTPLSLSVTPGQPASISCKSSQQLETSTGTTYLNWYLQKPGQSPQLLIYRASKRFSGVPDRFSGSGSGTDFTLKISRVEAEDVGVYYCLQLLEDPYSFGQGTKLEIK
koff: 4e-05 s⁻¹
//
BINDER: CNG-CD19-702 (antibody, V domains shown, tested as IgG produced in yeast) VH: QVQLQESGPGLVKPSQTLSLTCTVSGGSTSTSGMGVSWIRQHPGKGLEWIGHIWWDDDKRYNPVLKSRVTISVDTSKNQFSLKLSSVTAADTAVYYCARMELWSYYFDPWGQGTLVTVSS VL: EIVLTQSPATLSLSPGERATLSCSASSSVSYMHWYQQKPGQAPRLLIYDTSKLASGIPARFSGSGSGTDFTLTISSLEPEDFAVYYCFQGSVYPFTFGQGTKLEIK
koff: 0.000175 s⁻¹
//
BINDER: CNG-CD19-708 (antibody, V domains shown, tested as IgG produced in yeast) VH: QVQLQESGPGLVKPSQTLSLTCTVSGGSISTSTMGVGWIRQHPGKGLEWIGFIWWDDDKRYNPNLKSRVTMSVDTSKNQFSLKLSSVTAADTAVYYCARMELWSYYFDPWGQGTLVTVSS VL: EIVLTQSPATLSLSPGERATLSCSASSSVGYMHWYQQKPGQAPRLLIYDTSKLSSGIPARFSGSGSGTDFTLTISSLEPEDFAVYYCFQGSVYPFTFGQGTKLEIK
koff: 6.69e-05 s⁻¹
//
BINDER: CNG-CD19-106 (antibody, V domains shown, tested as IgG produced in yeast) VH: QVQLVQSGAEVKKPGASVKVSCKASGYDFTDYIMHWVRQAPGQGLEWMGYINPYNDGSEYTEKFQGRVTMTSDTSISTAYMELSRLRSDDTAVYYCARGTYYYGPQLFDYWGQGTTVTVSS VL: DIVMTQTPLSLSVTPGQPASISCKSSQSLETATGTTYLNWYLQKPGQSPQLLIYRVSRRFSGVPDRFSGSGSGTDFTLKISRVEAEDVGVYYCLQLLEDPYTFGQGTKLEIK
koff: 0.000114 s⁻¹

### Prompt # koff lookup, item CNG-CD19-705 (antibody, V domains shown, tested as IgG produced in yeast) VH: QVQLQESGPGLVKPSQTLSLTCTVSGGSISTSGMGVGWIRQHPGKGLEWIGHIWWDDDKRYNPALKSRVTISVDTSKNQFSLKLSSVTAADTAVYYCARMELWSYYFDYWGQGTLVTVSS VL: EIVLTQSPATLSLSPGERATLSCSASSSVGYMHWYQQKPGQAPRLLIYDTSSLASGIPARFSGSGSGTDFTLTISSLEPEDFAVYYCFQGSVYPFTFGQGTKLEIK
### Response 4.7e-05 s⁻¹
